Where these numbers come from: patent US20200123233A1

- studySystem: recombinant his-tagged HA0 trimer from H5N1 strain A/Anhui/1/2005 (Abcam, Cat. No. ab53938) (influenza A virus A/Anhui/1/2005 (H5N1))
- procedureText: ELISA on recombinant haemagglutinin, detection with rabbit anti-NANOBODY serum
resultType: ELISA titer (NANOBODY concentration giving extinction 1) (ng/mL)

binder	qual	quantitativeResult
IV144 (VHH) VHH: QVQLQQSGGGLVQAGGSLRLSCAASGNIISFNPMGWHRQAPGKQRELVASITSGGSISYVDSVKGRFTISRDSAKNTIYLQMNSLKPEDTAVYFCAGEGPRRRGSTWYTDTYWGQGTQVTVSS	=	33.1
IV156 (VHH) VHH: QVQLQQSGGGLVQPGGSLRLSCAASRSGFSFNPMGWYRQAPGKQRELVATITSGGTTNYADSVKGRFTISTDNAKTTVFLQMNSLKPEDTAVYYCNGRGPRRGTAGWFTDDYWGQGTQVTVSS	=	51.9
IV155 (VHH) VHH: QVQLQESGGGLVQAGGSLRLSCAASGRSLSRYAMGWFRQAPGKEREFVATKTSGGVTYYGASVKGRFTISRDNAKNMVYLQMNSLNPEDTAIYYCAAGTDAIFKPWMLPDYWGQGTQVTVSG	>	10000
IV157 (VHH) VHH: QVQLQQSGGGLVQPGGSLRLSCAASRSDISFNPMGWYRQAPGKQRELVATISNGGTTNYADSVKGRFTISQDNAKTTVYLQMNSLKPEDTAVYYCNGRGPRYATTGWYTDDYWGQGTQVTVSS	=	30.6
